- tested_target: T1, purified arginase 1 (ARG1; aa 1-322) (UniProt P05089 1-322)
- T1 construct: Arginase 1 (ARG1), P05089, aa 1-322; Named MBP-ARG1 only for the SPR; also called MBP-ARG1; purified ARG1
- T1 sequence (looked up): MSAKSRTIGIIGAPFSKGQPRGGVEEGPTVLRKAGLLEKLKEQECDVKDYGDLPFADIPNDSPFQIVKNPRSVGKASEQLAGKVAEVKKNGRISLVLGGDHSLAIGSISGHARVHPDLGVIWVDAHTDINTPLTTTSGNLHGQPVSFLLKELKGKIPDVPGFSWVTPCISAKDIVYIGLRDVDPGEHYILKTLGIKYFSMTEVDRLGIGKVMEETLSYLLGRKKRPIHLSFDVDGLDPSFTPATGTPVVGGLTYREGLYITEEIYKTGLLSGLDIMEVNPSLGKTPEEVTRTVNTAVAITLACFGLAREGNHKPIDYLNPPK
- assay_overview: SPR; Biacore X100, CM5 chip, GST-hsNex (10 µM) captured by immobilized anti-GST antibody, MBP-ARG1 0.5-20 µM injected, 25 °C, 10 mM HEPES pH 7.4, 150 mM NaCl, 0.05% P20, Langmuir 1:1 model
- setup_conditions: both partners purified
value_kind: Kd
Quick note: number first, unit second.

Request: GET /values?readout=Kd&item= MELPTKPGTFDLGLATWSPSFQGETHRAQARRRDVGRQ (domain or fragment, UniProt Q7Z444 1-38, looked up, Embryonic stem cell-expressed Ras (ERas), human, Q7Z444, N-terminal extension (Nex) aa 1-38; Cloned into pMal-c5X-His or pGEX-4T1-N-TEV; used as GST fusion; also called ERas hsNex; GST-Nex of human ERas) [GST-hsNex (human ERas N-terminal extension, aa 1-38)]
Result: 2.1 µM
